# Tested target: BChE (Equine) (Equus caballus)
# Construct: purchased Sigma-Aldrich (Steinheim, Germany)
# Sequence (P81908 whole entry): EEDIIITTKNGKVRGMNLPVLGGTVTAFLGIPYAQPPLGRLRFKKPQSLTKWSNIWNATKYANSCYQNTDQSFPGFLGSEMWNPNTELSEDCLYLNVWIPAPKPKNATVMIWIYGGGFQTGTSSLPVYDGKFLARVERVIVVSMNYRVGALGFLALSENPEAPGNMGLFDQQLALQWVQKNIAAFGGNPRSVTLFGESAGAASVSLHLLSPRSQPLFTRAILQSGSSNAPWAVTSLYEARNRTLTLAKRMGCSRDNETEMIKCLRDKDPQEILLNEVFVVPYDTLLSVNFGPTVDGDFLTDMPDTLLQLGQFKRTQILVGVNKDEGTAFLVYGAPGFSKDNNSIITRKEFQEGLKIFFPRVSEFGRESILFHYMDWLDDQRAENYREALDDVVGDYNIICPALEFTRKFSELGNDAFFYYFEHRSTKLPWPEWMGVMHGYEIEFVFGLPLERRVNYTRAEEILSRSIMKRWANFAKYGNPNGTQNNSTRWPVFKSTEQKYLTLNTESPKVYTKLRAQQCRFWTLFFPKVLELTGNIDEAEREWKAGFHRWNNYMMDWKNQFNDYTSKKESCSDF
# Experiment summary: biochemical
# Type: biochemical
# Measurement setup: 10^-3 M
Readout label: BChE (Equine) inhibitory activity (%) ± SD
Give just the numeric value; % need not be written.

Completed entries (count: 5):
CCN1CCN(C(=S)SCC(=O)Nc2c3ccccc3nc3ccccc23)CC1 [Compound 4c]: 45.18
O=C(CSC(=S)N1CCCCC1)Nc1c2ccccc2nc2ccccc12 [Compound 4s]: 86.72
O=C(CSC(=S)N1CCN(c2ccc(Cl)cc2)CC1)Nc1c2ccccc2nc2ccccc12 [Compound 4i]: 99.37
Cc1ccc(CN2CCN(C(=S)SCC(=O)Nc3c4ccccc4nc4ccccc34)CC2)cc1 [Compound 4o]: 98.64
CN(C)CCCN1CCN(C(=S)SCC(=O)Nc2c3ccccc3nc3ccccc23)CC1 [Compound 4b]: 98.16

Task: Recall the reported BChE (Equine) inhibitory activity (%) ± SD of O=C(CSC(=S)N1CCN(CCO)CC1)Nc1c2ccccc2nc2ccccc12 [Compound 4e] on BChE (Equine) (Equus caballus) and write it down.
Output: 97.00

Task: Recall the reported BChE (Equine) inhibitory activity (%) ± SD of CN(C)CCN1CCN(C(=S)SCC(=O)Nc2c3ccccc3nc3ccccc23)CC1 [Compound 4a] on BChE (Equine) (Equus caballus) and write it down.
Output: 99.13

Task: Recall the reported BChE (Equine) inhibitory activity (%) ± SD of CC1CCCCN1C(=S)SCC(=O)Nc1c2ccccc2nc2ccccc12 (stereo not drawn) [Compound 4t] on BChE (Equine) (Equus caballus) and write it down.
Output: 96.06

Task: Recall the reported BChE (Equine) inhibitory activity (%) ± SD of O=C(CSC(=S)N1CCN(c2ncccn2)CC1)Nc1c2ccccc2nc2ccccc12 [Compound 4j] on BChE (Equine) (Equus caballus) and write it down.
Output: 92.87

The values you see were collected from paper PMC6222329.
